# assay_details: Intestinal S9 fraction stability, mouse
# condition_notes: male, CD-1, mouse, s9, CLint, Mouse intestinal S9 fraction, control compound
test_readout: microsomal CLint

Measured microsomal CLint of C[C@]12CC[C@H]3[C@@H](CCC4=CC(=O)CC[C@@]43C)[C@@H]1CC[C@@H]2O [Testosterone, testosterone, reference compound] : < 11.6 µL/min/mg

###

# assay_details: Simulated intestinal fluid (SIF) stability in the presence of various enzymes
# Assay type: in vitro ADME
# condition_notes: simulated intestinal fluid with chymotrypsin, pH 6.8, SIF + Chymotrypsin; read-out: Half-life
test_readout: half-life at 1 μM (h)
Give just the number in h; leave the unit off.

Measured half-life at 1 μM of CCCCCCCCCCCCCCCC(=O)NCCOC(=O)CCC(=O)OC(COC(=O)CCC)COC(=O)CCC : 1.4
